Property: Kd; scope: individual binders
tested-on: S1 variant B.1.1.7: UK (Acro) spike protein (SARS-CoV-2, UniProt P0DTC2 16-1213)
procedure-summary: SPR (Carterra LSA); […]; 1:1 model; […]
Response body: numeric value in nM, unit text excluded.

Request the reported Kd associated with Antibody 1-8 (Fc fusion) EVQLVESGGGLVQPGGSLRLSCAASGRTLSRYTMGWFRQAPGKEREFVASITSGGTTNYADSVKGRFTISADNSKNTAYLQMNSLKPEDTAVYYCAKEDVGKPFDWGQGTLVTVSS
2.26
